Molecular target: Mitogen-activated protein kinase kinase kinase kinase 3 (Homo sapiens, UniProt Q8IVH8); also: in the data inactive means no Kd found up to 30 µM
Sequence (Q8IVH8 whole entry): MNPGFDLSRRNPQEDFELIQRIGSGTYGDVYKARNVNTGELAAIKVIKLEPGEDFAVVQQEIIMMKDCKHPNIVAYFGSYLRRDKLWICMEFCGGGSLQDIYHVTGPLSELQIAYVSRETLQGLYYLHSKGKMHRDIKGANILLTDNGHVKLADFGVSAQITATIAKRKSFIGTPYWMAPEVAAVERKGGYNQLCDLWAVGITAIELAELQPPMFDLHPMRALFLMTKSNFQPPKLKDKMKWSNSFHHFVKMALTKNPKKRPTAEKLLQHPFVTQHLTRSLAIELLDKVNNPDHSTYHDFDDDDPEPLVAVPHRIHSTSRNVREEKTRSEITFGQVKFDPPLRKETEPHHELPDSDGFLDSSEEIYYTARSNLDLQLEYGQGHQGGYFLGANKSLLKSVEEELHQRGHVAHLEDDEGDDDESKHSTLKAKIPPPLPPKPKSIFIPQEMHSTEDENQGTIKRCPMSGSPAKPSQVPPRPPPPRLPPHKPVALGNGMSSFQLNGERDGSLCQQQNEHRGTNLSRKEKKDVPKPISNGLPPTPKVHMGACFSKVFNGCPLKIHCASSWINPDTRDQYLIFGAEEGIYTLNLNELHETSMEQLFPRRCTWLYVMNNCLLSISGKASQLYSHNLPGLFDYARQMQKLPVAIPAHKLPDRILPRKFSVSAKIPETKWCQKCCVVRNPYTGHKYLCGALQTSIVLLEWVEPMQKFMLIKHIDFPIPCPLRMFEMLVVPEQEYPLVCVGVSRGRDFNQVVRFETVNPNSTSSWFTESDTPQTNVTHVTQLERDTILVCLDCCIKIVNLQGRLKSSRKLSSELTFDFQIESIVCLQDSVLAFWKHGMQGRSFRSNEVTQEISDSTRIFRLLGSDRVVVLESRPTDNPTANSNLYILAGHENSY
Calls of active or inactive are those of the source.
Hi there, use one of these labels in your reply, thanks! active, inactive

Past entries and their recorded results:
- Compound: "COc1ccc(S(=O)(=O)N(C(C)=O)c2ccccc2/C=C/c2cc[n+]([O-])cc2)cc1"
  Discrete Label: "inactive"
- Compound: "Cc1nc2cc(-c3nn(C(C)C)c4ncnc(N)c34)ccc2o1"
  Discrete Label: "inactive"
- Compound: "O=C(Nc1c[nH]nc1-c1nc2cc(CN3CCOCC3)ccc2[nH]1)NC1CC1"
  Discrete Label: "inactive"
- Compound: "Cn1cc(-c2cnn3c(N)c(Br)c([C@@H]4CCCNC4)nc23)cn1"
  Discrete Label: "inactive"
- Compound: "Cc1nc2cc(-n3ncc(C(=O)c4cc5ccccc5[nH]4)c3N)ccc2[nH]1"
  Discrete Label: "inactive"

Query: Write down the call the test reported for this compound. Item: "Cn1cc(-c2cnc3ccc4ccc(CS(=O)(=O)NCc5ccccn5)cc4c(=O)c3c2)cn1"
Result: inactive

Query: O=c1[nH]ccc2cc(OC3CCNCC3)ccc12 [SAR-407899 FREE BASE] ?
Result: inactive

Query: "CCOc1cc2ncc(C#N)c(Nc3ccc(F)c(Cl)c3)c2cc1NC(=O)/C=C/CN(C)C" ?
Result: active

Query: "Cc1cc(Nc2ncnc3ccc(NC4=NC(C)(C)CO4)cc23)ccc1Oc1ccn2ncnc2c1" ?
Result: inactive

Query: "CO[C@H]1C[C@@H]2CC[C@@H](C)[C@@](O)(O2)C(=O)C(=O)N2CCCC[C@H]2C(=O)O[C@H]([C@H](C)C[C@@H]2CC[C@@H](OC(=O)C(C)(CO)CO)[C@H](OC)C2)CC(=O)[C@H](C)/C=C(\C)[C@@H](O)[C@@H](OC)C(=O)[C@H](C)C[C@H](C)/C=C/C=C/C=C/1C" ?
Result: inactive

Query: "Cc1cc(Nc2ncc(Cl)c(Nc3ccccc3S(=O)(=O)C(C)C)n2)c(OC(C)C)cc1C1CCNCC1" ?
Result: inactive
